# Lookup of reported reporter increase keyed by entry
Assay Remarks: Bmi1 luciferase reporter increase in mESCs, primary screen, esBAF inhibitor project, mouse ES cells, Bmi1 luciferase knock-in, single point (AID 602393);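 further: 0% = median of the plate's neutral control wells and 100% = double that signal; a rise in the Bmi1 reporter signal indicates esBAF inhibition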
Test Context: 24 h, at 12.5 µM, active compounds read high, 100% = twice the neutral-well signal
About 7,000 (2%) of roughly 350,000 compounds were called active. The list comes from a sample in which actives are over-represented; it also holds close analogues and randomly drawn compounds.
Please give a number only; it is taken to be in %.

Lookup result for COc1ccc2c(Cl)c(C(=O)NCc3ccco3)sc2c1 ; measured reporter increase: 35.4

Kindly note the recorded reporter increase for CCOC(OCC)c1ccc(/C=C\c2nccc(N)n2)cc1 , which is 46.6

// reporter increase lookup, molecule = Cc1noc(C)c1S(=O)(=O)N(C)C[C@H]1OCCCC[C@H](C)Oc2ccc(NS(=O)(=O)c3ccccc3)cc2C(=O)N([C@H](C)CO)C[C@@H]1C , result: -1.33

Looking up O=C(NCc1ccco1)c1sc2cccc(F)c2c1Cl , I see its reporter increase listed as 44

----------
Assay Remarks: Bmi1 luciferase reporter increase in mESCs, primary screen, esBAF inhibitor project, mouse ES cells, Bmi1 luciferase knock-in, single point (AID 602393);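 further: 0% = median of the plate's neutral control wells and 100% = double that signal; a rise in the Bmi1 reporter signal indicates esBAF inhibition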
Test Context: 24 h, at 12.5 µM, 100% = twice the neutral-well signal
Hit rate of the full screen: of about 350,000 compounds, about 7,000 (2%) were called active. Rule as the data show it: active = activation above about 40%; inconclusive = no clear call, values can overlap the other calls; inactive = below that. The full list was thinned out, with actives kept by preference.
Mark one answer only. Choices: T = active, F = inactive

These solved cases illustrate the format of a correct answer.
CN1CCN(C(=O)C[C@H]2C[C@@H]3c4cc(NC(=O)NC5CCCC5)ccc4O[C@@H]3[C@@H](CO)O2)CC1: F
Cc1ccoc1C(=O)Nc1cccc(Oc2ccccc2)c1: T
Cn1cnc(S(=O)(=O)N2C[C@@H](O)COC[C@H]3O[C@H](CC(=O)N4CCN(c5ccccc5)CC4)CC[C@@H]32)c1: F
CC1(C(=O)Nc2cccc(Oc3ccccc3)c2)CCN1Cc1ccccc1Cl (stereo not drawn): F
COCC(=O)Nc1ccc2c(c1)C(=O)N(C)[C@@H]1CC[C@@H](CC(=O)NCCCN(C)C)O[C@@H]1CO2: F
C[C@@H]1CN([C@@H](C)CO)S(=O)(=O)c2ccc(C#CC3CCCC3)cc2O[C@H]1CN(C)S(C)(=O)=O: F
C[C@H]1CN([C@@H](C)CO)C(=O)c2cc(N(C)C)ccc2O[C@@H]1CN(C)C(=O)Nc1ccc2c(c1)OCO2: F

Moving on to another molecule below.
Task: Given C[C@H](CO)N1C[C@H](C)[C@@H](CN(C)C)OCCCC[C@H](C)Oc2ccc(NC(=O)C3CCCCC3)cc2C1=O , state the outcome it received in this test.
Result: F

----------
Assay Remarks: Bmi1 luciferase reporter increase in mESCs, primary screen, esBAF inhibitor project, mouse ES cells, Bmi1 luciferase knock-in, single point (AID 602393);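 further: 0% = median of the plate's neutral control wells and 100% = double that signal; a rise in the Bmi1 reporter signal indicates esBAF inhibition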
Test Context: 24 h, at 12.5 µM, active compounds read high, 100% = twice the neutral-well signal
About 7,000 (2%) of roughly 350,000 compounds were called active. What follows is part of a selection rich in actives, with near analogues and random picks from the rest.
Value Type: reporter increase (%)
Answer in %, number only, no unit symbol.

CCOC(=O)Cc1csc(NC(NC(=O)OCC)(C(F)(F)F)C(F)(F)F)n1: -0.744

reporter increase recorded for this compound, C[C@@H]1CN([C@@H](C)CO)C(=O)Cc2cc(NC(=O)Nc3ccc4c(c3)OCO4)ccc2O[C@H]1CN(C)S(=O)(=O)c1ccc(F)cc1 , is -0.705

Recorded result, C[C@@H]1CN([C@@H](C)CO)C(=O)Cc2cc(NS(=O)(=O)c3ccc(F)cc3)ccc2O[C@@H]1CN(C)S(=O)(=O)c1cccs1 , reporter increase: 4.77

Field reporter increase (entry C/C=C/c1ccc([C@H]2[C@@H](C#N)N(C(=O)CN3CCOCC3)[C@@H]2CO)cc1 ) reads -3.67
